We begin with a simple list: items and their reported reverse-splicing fitness.
B1: Azoarcus group I ribozyme (parent)
chain: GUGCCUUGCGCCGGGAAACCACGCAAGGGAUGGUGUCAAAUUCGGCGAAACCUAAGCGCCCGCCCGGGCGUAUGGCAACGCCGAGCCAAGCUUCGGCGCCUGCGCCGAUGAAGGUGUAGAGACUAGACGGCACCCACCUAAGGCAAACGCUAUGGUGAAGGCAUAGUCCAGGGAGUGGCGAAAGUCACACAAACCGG

Variants of: B1
Test: reverse-splicing fitness (ratio to wild type); higher = more active; in vitro selection; Mg2+ level not given
Give only the figure.

Would you please look over these solved cases?
Request: Which value of reverse-splicing fitness has been reported for C82G A111C A145C C150U C169G in the records?
Response: 0.00777

Request: Any idea what reverse-splicing fitness was measured for A111C A120C A145G C150A U176A ?
Response: 0.0428

Request: Which reverse-splicing fitness value belongs to C82G A120U C169G U176G ?
Response: 0.00147

Request: What does the data say about its reverse-splicing fitness? Entry: A111C A145U C150G C169G U176C
Response: 0.00594

Request: Which reverse-splicing fitness is listed for C82A A111C A120G A145C C150G C169G U176A ?
Response: 0.00836

***
Request: Need reverse-splicing fitness of C82U A111U A145C C150G C169G , thanks.
Response: 0.0072

Request: Report reverse-splicing fitness for A111U A120C A145C C150U U176G please.
Response: 0.019

Request: Would you kindly share the measured reverse-splicing fitness for C82A A111U A120U A145C C150U C169U ?
Response: 0.00328

Request: Report reverse-splicing fitness for C82G A120U A145U C150U C169G please.
Response: 0.00513

Request: // reverse-splicing fitness lookup, key: C82U A111C C150U
Response: 0.123
